Tested on: M14 melanoma
Assay Protocol: NCI tumour cell line growth inhibition, 48 h
Hi there, I'd appreciate the recorded TGI for every entry that follows.

IN: Using the record for `C/C=C/COC(=O)CO[N+](=O)[O-]` , report its TGI.
OUT: > 100 µM

IN: Tell me the measured TGI of `CCn1c(=O)c2nc(SC)sc2n(-c2ccccc2)c1=O` , please.
OUT: > 100 µM

IN: # input molecule: `C(=Nc1ccc(-c2nc3ccccc3[nH]2)cc1)c1ccco1` ; wanted: its TGI
OUT: > 100 µM

IN: Name the recorded TGI for `CC1C2=C(CCCC2=O)N(c2ccc(Cl)cc2)C2=C1C(=O)CCC2` .
OUT: > 100 µM

IN: Dear colleague, I am looking for the recorded TGI of the following molecule: `CC(C)(C)OC(=O)Cn1ncn(NC(=O)Cc2ccccc2)c1=O`
OUT: > 10 µM

IN: Would you kindly share the measured TGI for `O=c1cc(-c2ccccc2)oc2cc(OC/C(=N/O)c3ccc(F)cc3)ccc12` ?
OUT: > 50 µM

IN: GET /values?readout=TGI&item= Cc1ccc(C)c(NC(=O)CC2SC(=Nc3ccccc3Cl)NC2=O)c1 (configuration not stated)
OUT: > 100 µM

IN: # lookup: TGI of `NC(=Nc1cccc(Cl)c1)c1ccccc1N`
OUT: > 100 µM

IN: // returns reported TGI for input COC1OC(C)C2OC(C)(C)OC2C1OC(C)=O (configuration not stated)
OUT: > 100 µM

IN: Need TGI, item `Cc1cc(Nc2cc(N3CCN(C)CC3)nc(Sc3ccc(NC(=O)C4CC4)cc3)n2)n[nH]1`
OUT: > 10 µM

IN: Name the recorded TGI for CCn1c2c(c3ccccc31)C(c1ccccc1)CC1C(=O)N(c3ccccc3)C(=O)C21 (configuration not stated) .
OUT: > 100 µM

IN: Quick one: TGI of `Cc1ccc2[nH]c3[nH]c(=S)[nH]c(=O)c3c2c1` ?
OUT: > 100 µM

----------
For each entry below, report its GI50 value.
Tested on: OVCAR-4 ovarian
Assay Protocol: NCI tumour cell line growth inhibition, 48 h

IN: Give GI50 (OVCAR-4 ovarian) of the following molecule: `CC1=C[C@H]2C[C@H](C)[C@H]3CC[C@H](C)[C@]4(C1)C(=O)C(O)=C(C)C(=O)[C@@]324`
OUT: 29800 nM

IN: # get_value(readout= GI50, system= OVCAR-4 ovarian) for `N#Cc1c(N)nc(NCc2ccccc2)c(C#N)c1-c1ccc(Cl)cc1Cl`
OUT: 24700 nM

IN: For the record `C=C1C(=O)O[C@H]2[C@H]1CC/C(COC(=O)NCCc1c[nH]c3ccc(Cl)cc13)=C\CC[C@@]1(C)O[C@@H]21` , what value of GI50 is listed for OVCAR-4 ovarian?
OUT: 1500 nM

IN: # value lookup — system OVCAR-4 ovarian, readout GI50, item COc1cccc(C2C3=C(COC3=O)N(CCO)c3cc4c(cc32)OCO4)c1 (stereo not drawn)
OUT: 2320 nM

IN: Item COc1cc(C2C3=C(COC3=O)N(CCO)c3cc4c(cc32)OCO4)cc(OC)c1O (stereo not drawn) with OVCAR-4 ovarian - GI50?
OUT: 2990 nM

IN: Field: GI50 (OVCAR-4 ovarian). Entry: COc1ccc(C(CC(=O)c2ccccc2)C(C(=O)c2ccccc2)C(c2ccc(OC)cc2)C2C(=O)NC(=S)NC2=O)cc1 (stereo not drawn)
OUT: 30300 nM

IN: Which GI50 is reported with OVCAR-4 ovarian for this entry: `COc1cccc(/C(C)=N/NC(=O)CSc2nc3ccccc3c(=O)n2CCc2ccc(S(N)(=O)=O)cc2)c1` ?
OUT: 1850 nM

IN: Can you look up GI50 on OVCAR-4 ovarian for `COc1cc(/C=C/c2cc(/C=C/c3ccc(O)c(OC)c3)n(C(=O)Nc3ccc(Cl)cc3)n2)ccc1O` ?
OUT: 803 nM
